test system: RXF 393 renal; assay: NCI tumour cell line growth inhibition, 48 h
Outcome: TRUE for TGI of at least 30 µM; FALSE for anything lower.

[ask] Does the compound `Nc1ncnc2c1ncn2[C@@H]1O[C@H](COC(c2ccccc2)(c2ccccc2)c2ccccc2)[C@@H](OC(=S)Oc2ccccc2)[C@@H]1F` have recorded TGI that is 30 µM or more?
[reply] FALSE

[ask] Does the compound `CCCc1[nH]c2ccccc2c1-c1c(CCC)[nH]c2ccccc12` have recorded TGI that is 30 µM or more?
[reply] TRUE

[ask] Does the compound CC(CO)(Nc1ccc([N+](=O)[O-])cc1[N+](=O)[O-])C(=O)O (configuration not stated) have recorded TGI that is 30 µM or more?
[reply] FALSE

[ask] Does the compound CCC1C(c2ccccc2O)c2cc3c(cc2OC1N1CCOCC1)OCO3 (configuration not stated) have recorded TGI that is 30 µM or more?
[reply] FALSE

[ask] Does the compound `CN1CCN(CCCCCN=c2cc3c(=O)n(CCCCCN4CCN(C)CC4)c(=O)c4c(NCCCCCN5CCN(C)CC5)cc5c(O)n(CCCCCN6CCN(C)CC6)c(=O)c2c5c4-3)CC1` have recorded TGI that is 30 µM or more?
[reply] TRUE

[ask] Does the compound `Fc1cccc(F)c1C(Nc1nncs1)Nc1nncs1` have recorded TGI that is 30 µM or more?
[reply] TRUE

[ask] Does the compound NC(Cc1ccc(S(=O)(=O)O)cc1)C(=O)NC(Cc1ccc(S(=O)(=O)O)cc1)C(=O)NC(Cc1ccc(S(=O)(=O)O)cc1)C(=O)NC(Cc1ccc(S(=O)(=O)O)cc1)C(=O)O (configuration not stated) have recorded TGI that is 30 µM or more?
[reply] TRUE

[ask] Does the compound `O=C(O)CCNS(=O)(=O)c1ccc([N+](=O)[O-])cc1` have recorded TGI that is 30 µM or more?
[reply] TRUE

[ask] Does the compound `O=C(O)c1ccccc1NC(=S)c1ccccc1` have recorded TGI that is 30 µM or more?
[reply] TRUE

[ask] Does the compound `O=C1OC(=O)c2c1c(-c1ccccc1)nc1ccccc21` have recorded TGI that is 30 µM or more?
[reply] TRUE

[ask] Does the compound `COc1ccc2c(-c3ccnc(Nc4cccc(OC(F)(F)F)c4)n3)cnn2n1` have recorded TGI that is 30 µM or more?
[reply] FALSE

[ask] Does the compound `O=NN(CCF)C(=O)NC1CCSCC1` have recorded TGI that is 30 µM or more?
[reply] TRUE

[ask] Does the compound C[N+](C)(C)c1ncnc2c1ncn2C1CCCO1 (configuration not stated) have recorded TGI that is 30 µM or more?
[reply] TRUE

[ask] Does the compound `O=C(NCCNCCO)c1cccc2ccc(-c3ccccc3)nc12` have recorded TGI that is 30 µM or more?
[reply] FALSE

[ask] Does the compound `N#C/C(C(=S)NCc1ccccc1)=C(/N)N1CCCC1` have recorded TGI that is 30 µM or more?
[reply] TRUE

[ask] Does the compound `COc1cc(/C=C/c2ccc3c(Br)cc(Br)c(O)c3n2)ccc1O` have recorded TGI that is 30 µM or more?
[reply] FALSE

[ask] Does the compound `C=C1CC[C@@H](C)[C@](C)(CCc2ccoc2)C/C=C\C=C/1C(=O)O` have recorded TGI that is 30 µM or more?
[reply] TRUE

[ask] Does the compound `Cc1cc2c(cc1C)[n+](=O)c(C(=O)c1ccccc1)c(C(F)(F)F)n2[O-]` have recorded TGI that is 30 µM or more?
[reply] FALSE

[ask] Does the compound `COc1cc2ncc3c(nc4sccn43)c2cc1OC` have recorded TGI that is 30 µM or more?
[reply] TRUE

[ask] Does the compound N#CCCC1(CCC#N)CCCCCCCCC(CCC#N)(CCC#N)C(O)C1O (configuration not stated) have recorded TGI that is 30 µM or more?
[reply] TRUE
